Cited source: ChEMBL document CHEMBL1201862

Test system: ACHN
Assay: NCI tumour cell line growth inhibition, 48 h
The source made the active and inactive calls. No stated cut-off is given here; in the data, active = GI50 up to about 1.1 µM and inactive = higher.
measurement kind: GI50

>>> df
                                   molecule              measured
0  Cc1ccc(S(=O)(=O)n2c3c(c4ccccc42)CCN2C[C@H]([C@H](C)Br)CC[C@@H]32)cc1   > 100 µM (inactive)
1           O=C(c1cc(Br)ccc1O)c1cc(Br)ccc1O    16.4 µM (inactive)
2       N=c1oc2ccc(Cl)cc2cc1C(=O)NCc1ccccc1  > 91.8 µM (inactive)
3   COc1ccc(-c2cc(O)c3cc4c(cc3n2)OCO4)cc1OC   > 100 µM (inactive)
4  CC(=O)NC(Cc1c[nH]cn1)C(=O)N1CCCC1C(N)=O (stereo not given)   > 100 µM (inactive)
5  C=CCOCCC(CC=C)C(=O)CC(=O)OC (stereo not given)   > 100 µM (inactive)
6  CN(C)CC1CCC/C(=C\c2ccc(Cl)c(Cl)c2)C1=O (stereo not given)    4.18 µM (inactive)
7  COC(=O)/C=C1\C(CO[Si](C)(C)C(C)(C)C)OC(n2cc(C)c(=O)n(C)c2=O)C1O[Si](C)(C)C(C)(C)C (stereo not given)   > 100 µM (inactive)
8  CN(C)C(C1=C(O)C(c2ccccc2)N(c2ccccc2)C1=O)N1CCOCC1 (stereo not given)    > 10 µM (inactive)
9  CC1=CP(=O)(c2c(C(C)C)cc(C(C)C)cc2C(C)C)CCC1Cl (stereo not given)    15.9 µM (inactive)

###

Some molecules, each annotated with its measured GI50.
Test system: U-251
Experiment: NCI tumour cell line growth inhibition, 48 h
The source made the active and inactive calls. Rule as the data show it: active = GI50 up to about 1.1 µM and inactive = higher.
measurement kind: GI50

>>> print(df.to_string())
                                    molecule  target_system             measured
 0  Cn1c(COC(=O)NC2CCCCC2)c(COC(=O)NC2CCCCC2)c2ccc3ccccc3c21          U-251  > 100 µM (inactive)
 1  COC(=O)c1c2c(cc3c1CC1(Cc4cc5c(c(C(C)=O)c4C1)CCC5)C3)CCC2 (stereo unspecified)          U-251   78.3 µM (inactive)
 2  CC(=O)SCCC1c2[nH]c3ccccc3c2CCN1O (stereo unspecified)          U-251  > 100 µM (inactive)
 3  COC1C(O)C(n2ncc3c(SC)nc(SC)nc32)OC1C(O)CO (stereo unspecified)          U-251  > 100 µM (inactive)
 4  Cc1nnc2n1N=C(c1ccccc1)C(c1ccccc1)S2 (stereo unspecified)          U-251   23.1 µM (inactive)
 5  COc1ccc(C2c3cc4c(cc3OC(NCCO)C2C)OCO4)cc1 (stereo unspecified)          U-251   21.2 µM (inactive)
 6          COc1ccccc1CCc1cc(OC)c(OC)c(OC)c1          U-251   40.4 µM (inactive)
 7  CN(C)C(C1=C(O)C(c2ccccc2)N(c2ccccc2)C1=O)N1CCOCC1 (stereo unspecified)          U-251   > 10 µM (inactive)
 8  Cc1c(C(=O)OCc2ccccc2)[n+]([O-])c2cc(Cl)c(Cl)cc2[n+]1[O-]          U-251   24.6 µM (inactive)
 9  CN(C)CC1CCC/C(=C\c2ccc(Cl)c(Cl)c2)C1=O (stereo unspecified)          U-251   2.65 µM (inactive)
10  O=c1c2cc(S(=O)(=O)Nc3ccc(Cl)cc3Cl)ccc2ncn1NS(=O)(=O)c1cccc2ccccc12          U-251   58.2 µM (inactive)
